Tested on: pigweed (Amaranthus retroflexus)
Experiment: Test D pre-/postemergence plant response
Assay type: in vivo
Conditions: Postemergence, 62 g ai/ha; scale 0 to 100, 0 no effect, 100 complete control
measurement.label: Pigweed plant response rating
Answers are plain numbers.

# annotated cases, reported Pigweed plant response rating shown
1) N#Cc1cccc(Oc2ncc(Cl)cn2)c1-c1cc(C(F)F)on1 = 75
2) FC(F)c1cc(-c2ccccc2Oc2ncc(Br)cn2)on1 = 100
3) Cc1cc(-c2c(F)cccc2Oc2ncc(Br)cn2)on1 = 70

Provide Pigweed plant response rating for all items below, preserving their order.
1. Fc1cccc(Oc2ncc(Cl)cn2)c1-c1cc(C(F)(F)F)no1
2. FC(F)c1cc(-c2c(Cl)cccc2Oc2ncc(Cl)cn2)no1
3. FCc1cc(-c2ccccc2Oc2ncc(Cl)cn2)on1
4. CC(F)(F)c1cc(-c2ccccc2Oc2ncc(Cl)cn2)on1

RESULT:
1. 95
2. 98
3. 85
4. 85
